Tested on: M. tuberculosis H37Rv growth inhibition with meropenem
Test: dose response, H37Rv, with and without meropenem (AID 434987);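 note: growth over 7 days at 37 °C before Alamar Blue read on day 9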
Settings: measured here: IC90 with meropenem
Please provide measured IC90 for the entries that follow.

Can you share its IC90? I mean this compound: Cc1cc(C)cc(SCc2noc(C(=O)NC(C)C)c2C(=O)O)c1 27.3 µM

Try this compound next: COc1cccc(CNC(=O)C(Cc2ccccc2)n2cccc2)c1 (stereo not given) > 100 µM

Try this compound next: O=C1C2CCN(CC2)C1Cc1ccc(OCCOc2ccccc2)cc1 (stereo not given) > 100 µM

Try this compound next: CCn1c(SCc2nc(-c3cccs3)no2)nnc1-c1c[nH]c2ccccc12 > 100 µM

Try this compound next: Cc1ccc(C2=NN(C(=O)CN3C(=O)c4ccccc4S3(=O)=O)C(c3ccco3)C2)cc1 (stereo not given) > 100 µM

----------
Please provide measured pIC50 for the entries that follow.
Tested on: M. tuberculosis H37Rv growth inhibition with meropenem
Assay: dose response, H37Rv, with and without meropenem (AID 434987);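 note: growth over 7 days at 37 °C before Alamar Blue read on day 9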
Settings: M. tuberculosis H37Rv growth inhibition; measured here: IC50 without meropenem
pIC50: −log10 of the molar value.

// lookup pIC50 | system=M. tuberculosis H37Rv growth inhibition with meropenem | key= CCN(CC)c1ccc(NC(=O)c2cc(Cl)ccc2OC)cc1 < 4.00

Try this compound next: O=C(c1ccc(-c2ccc(Cl)cc2)o1)N1CCN(S(=O)(=O)c2cccs2)CC1 < 4.00

Try this compound next: Cc1cc(C)n(-c2nc(-c3ccc(Cl)c(Cl)c3)cs2)n1 < 4.00

Try this compound next: O=C(CCN1C(=O)/C(=C/c2ccccc2F)SC1=S)Nc1ccccn1 < 4.00

Try this compound next: COC(=O)c1cc(OC)c(OC)cc1NC(=O)c1ccc(OC)c(OC)c1 < 4.00

Try this compound next: CCn1c(=O)n(CC)c2cc(N3CCCC3)c(NC(=O)c3cc(Br)ccc3OC)cc21 < 4.00

----------
Test system: M. tuberculosis H37Rv growth inhibition with meropenem
Assay: dose response, H37Rv, with and without meropenem (AID 434987);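 note: growth over 7 days at 37 °C before Alamar Blue read on day 9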
Details: M. tuberculosis H37Rv growth inhibition; measured here: IC50 without meropenem
Please provide measured IC50 for the entries that follow.
// return numeric value only (unit: µM, not printed)

Can you share its IC50? I mean this molecule: CCOC(=O)c1sc(NC(=O)CN2CCN(c3ccc(OC)cc3)CC2)nc1C 98.9

Try this molecule next: O=C(COC(=O)c1ccc(Cl)cc1[N+](=O)[O-])NNC(=O)c1cccs1 39.4

Try this molecule next: Cc1ccc(C)c(-n2c(-c3ccco3)n[nH]c2=S)c1 48.9

Try this molecule next: C=CCSc1nnc(-c2cc3c(-c4ccccc4)nn(C)c3s2)n1C 52.4

Try this molecule next: O=[N+]([O-])c1cc(C(F)(F)F)ccc1NCCc1c[nH]c2ccc(O)cc12 52.8

Try this molecule next: O=c1oc(-c2ccco2)nc2sc3c(c12)CCCCC3 67.6

Try this molecule next: Cc1ccc(C2=N/C(=C\c3cccc(F)c3)C(=O)O2)cc1 7.03

Try this molecule next: CCOC(=O)c1c(C)[nH]c(N=Nc2ccccc2Cl)c1C 63.1

----------
Tested on: M. tuberculosis H37Rv growth inhibition with meropenem
Assay: dose response, H37Rv, with and without meropenem (AID 434987);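 note: growth over 7 days at 37 °C before Alamar Blue read on day 9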
Settings: M. tuberculosis H37Rv growth inhibition; measured here: IC50 without meropenem
Please provide measured IC50 for the entries that follow.

Can you share its IC50? I mean this molecule: CCC(=O)NC(=S)Nc1ccc(-c2nc3ccccc3s2)cc1 > 100 µM

Try this molecule next: CC(C)(C)NS(=O)(=O)c1ccc(NC(=O)C(Sc2ccccc2)c2ccccc2)cc1 (stereo not drawn) > 100 µM

Try this molecule next: O=c1c2ccccc2c(-c2ccccc2)nn1-c1ccccc1 > 100 µM

Try this molecule next: O=C(CNc1ccccc1Cl)Nc1cc(S(=O)(=O)N2CCOCC2)ccc1Cl > 100 µM

Try this molecule next: CCOC(=O)c1nn(-c2ccc(Cl)cc2)cc1O > 100 µM

Try this molecule next: Cc1cc(NC(=O)CSc2nc(C(C)C)nc3sc4c(c23)CCCC4)no1 > 100 µM

Try this molecule next: Cc1cc(C)c(OCC(=O)Nc2nc3ccccc3[nH]2)c(C)c1 22.1 µM

Try this molecule next: CCOC(=O)c1cc(-c2ccccc2)sc1NC(=O)C(C)N1C(=O)NC(C)(c2ccc(Cl)cc2)C1=O (stereo not drawn) > 100 µM

Try this molecule next: C/C(=N/NC(=O)c1ccccn1)c1ccncc1 31.8 µM

Try this molecule next: COc1ccccc1NC(=O)COc1ccc(CO)cc1Cl > 100 µM

Try this molecule next: N#C/C(=C(/O)COC(=O)CCc1ccc(S(=O)(=O)N2CCOCC2)cc1)c1nc2ccccc2[nH]1 > 100 µM

Try this molecule next: Cc1cc(C)c(-c2c(O)c3ccccc3n(C)c2=O)c(C)c1 48.8 µM

Try this molecule next: CC(=O)NC(c1cc(Cl)c2cccnc2c1O)C1CC1 (stereo not drawn) 73.3 µM
